conditions: 334.16 K; 101.33 kPa; Liquid; Vibrating tube method

compound: CC(C)C(=O)[O-].C[NH2+]CCO [2-hydroxy-N-methylethanaminium isobutyrate]
scale_unit: kg/m3
mass density: 1019.59
--
compound: CC(=O)[O-].C[NH2+]CCO [N-methyl-2-hydroxyethylammonium acetate]
scale_unit: kg/m3
mass density: 1078.71
--
compound: CCC(=O)[O-].C[NH2+]CCO [2-hydroxy-N-methylethanaminium propionate]
scale_unit: kg/m3
mass density: 1047.33
--
compound: CCCC(=O)[O-].C[NH2+]CCO [N-methyl-2-hydroxyethylammonium butanoate]
scale_unit: kg/m3
mass density: 1014.54
--
compound: C[NH2+]CCO.O=C[O-] [2-hydroxy-N-methylethanaminium formate]
scale_unit: kg/m3
mass density: 1108.43
--
compound: CCCCC(=O)[O-].C[NH2+]CCO [2-hydroxy-N-methylethanaminium pentanoate]
scale_unit: kg/m3
mass density: 991.536

---

details: 332.16 K; 101.33 kPa; Liquid; Pulse-echo method
Numbers after ± are expanded uncertainties.

molecule: CC(C)C(=O)[O-].C[NH2+]CCO [2-hydroxy-N-methylethanaminium isobutyrate]
speed of sound: 1514.8 ± 2.1 m/s
--
molecule: CCCCC(=O)[O-].C[NH2+]CCO [2-hydroxy-N-methylethanaminium pentanoate]
speed of sound: 1443.9 ± 2.1 m/s
--
molecule: CCCC(=O)[O-].C[NH2+]CCO [N-methyl-2-hydroxyethylammonium butanoate]
speed of sound: 1508 ± 2.1 m/s
--
molecule: C[NH2+]CCO.O=C[O-] [2-hydroxy-N-methylethanaminium formate]
speed of sound: 1749.4 ± 2.2 m/s
--
molecule: CCC(=O)[O-].C[NH2+]CCO [2-hydroxy-N-methylethanaminium propionate]
speed of sound: 1588.8 ± 2.1 m/s

---

settings: 286.9 K; 101.33 kPa; Liquid; Pulse-echo method
Numbers after ± are expanded uncertainties.

compound: CCCC(=O)[O-].C[NH2+]CCO [N-methyl-2-hydroxyethylammonium butanoate]
speed of sound: 1651.6 ± 2.1 m/s

compound: CCCCC(=O)[O-].C[NH2+]CCO [2-hydroxy-N-methylethanaminium pentanoate]
speed of sound: 1585.4 ± 2.1 m/s

compound: CC(C)C(=O)[O-].C[NH2+]CCO [2-hydroxy-N-methylethanaminium isobutyrate]
speed of sound: 1643.7 ± 2.1 m/s

compound: C[NH2+]CCO.O=C[O-] [2-hydroxy-N-methylethanaminium formate]
speed of sound: 1837.4 ± 2.2 m/s

compound: CCC(=O)[O-].C[NH2+]CCO [2-hydroxy-N-methylethanaminium propionate]
speed of sound: 1723.9 ± 2.2 m/s

---

conditions: 322.15 K; 101.33 kPa; Liquid; Vibrating tube method

molecule: CCCC(=O)[O-].C[NH2+]CCO [N-methyl-2-hydroxyethylammonium butanoate]
mass density (kg/m3): 1022.96
--
molecule: C[NH2+]CCO.O=C[O-] [2-hydroxy-N-methylethanaminium formate]
mass density (kg/m3): 1114.89
--
molecule: CC(C)C(=O)[O-].C[NH2+]CCO [2-hydroxy-N-methylethanaminium isobutyrate]
mass density (kg/m3): 1027.7
--
molecule: CCC(=O)[O-].C[NH2+]CCO [2-hydroxy-N-methylethanaminium propionate]
mass density (kg/m3): 1055.49
--
molecule: CC(=O)[O-].C[NH2+]CCO [N-methyl-2-hydroxyethylammonium acetate]
mass density (kg/m3): 1086.24
--
molecule: CCCCC(=O)[O-].C[NH2+]CCO [2-hydroxy-N-methylethanaminium pentanoate]
mass density (kg/m3): 999.932

---

conditions: 311.65 K; 101.33 kPa; Liquid; Vibrating tube method
Numbers after ± are expanded uncertainties.
Measured mass density, listed per entry for reference.

compound: CCC(=O)[O-].C[NH2+]CCO [2-hydroxy-N-methylethanaminium propionate]
mass density: 1062.49 ± 2.2 kg/m3
--
compound: C[NH2+]CCO.O=C[O-] [2-hydroxy-N-methylethanaminium formate]
mass density: 1120.71 ± 2.2 kg/m3
--
compound: CCCC(=O)[O-].C[NH2+]CCO [N-methyl-2-hydroxyethylammonium butanoate]
mass density: 1030.17 ± 2.2 kg/m3
--
compound: CC(=O)[O-].C[NH2+]CCO [N-methyl-2-hydroxyethylammonium acetate]
mass density: 1092.7 ± 2.2 kg/m3
--
compound: CCCCC(=O)[O-].C[NH2+]CCO [2-hydroxy-N-methylethanaminium pentanoate]
mass density: 1007.14 ± 2.1 kg/m3
--
compound: CC(C)C(=O)[O-].C[NH2+]CCO [2-hydroxy-N-methylethanaminium isobutyrate]
mass density: 1034.64 ± 2.2 kg/m3

---

details: 306.9 K; 101.33 kPa; Liquid; Vibrating tube method
Numbers after ± are expanded uncertainties.
We begin with a simple list: items and their reported mass density.

compound: CCCCC(=O)[O-].C[NH2+]CCO [2-hydroxy-N-methylethanaminium pentanoate]
mass density: 1010.36 ± 2.1 kg/m3
//
compound: CCC(=O)[O-].C[NH2+]CCO [2-hydroxy-N-methylethanaminium propionate]
mass density: 1065.61 ± 2.2 kg/m3
//
compound: C[NH2+]CCO.O=C[O-] [2-hydroxy-N-methylethanaminium formate]
mass density: 1123.36 ± 2.2 kg/m3
//
compound: CCCC(=O)[O-].C[NH2+]CCO [N-methyl-2-hydroxyethylammonium butanoate]
mass density: 1033.38 ± 2.2 kg/m3
//
compound: CC(=O)[O-].C[NH2+]CCO [N-methyl-2-hydroxyethylammonium acetate]
mass density: 1095.59 ± 2.2 kg/m3
//
compound: CC(C)C(=O)[O-].C[NH2+]CCO [2-hydroxy-N-methylethanaminium isobutyrate]
mass density: 1037.74 ± 2.2 kg/m3

---

settings: 315.15 K; 101.33 kPa; Liquid; Pulse-echo method
Numbers after ± are expanded uncertainties.
Consider the following molecules and their measured speed of sound readings.

molecule: CCCCC(=O)[O-].C[NH2+]CCO [2-hydroxy-N-methylethanaminium pentanoate]
speed of sound: 1496 ± 2.1 m/s
--
molecule: CCCC(=O)[O-].C[NH2+]CCO [N-methyl-2-hydroxyethylammonium butanoate]
speed of sound: 1561.3 ± 2.1 m/s
--
molecule: C[NH2+]CCO.O=C[O-] [2-hydroxy-N-methylethanaminium formate]
speed of sound: 1782.2 ± 2.2 m/s
--
molecule: CC(C)C(=O)[O-].C[NH2+]CCO [2-hydroxy-N-methylethanaminium isobutyrate]
speed of sound: 1563.3 ± 2.1 m/s
--
molecule: CCC(=O)[O-].C[NH2+]CCO [2-hydroxy-N-methylethanaminium propionate]
speed of sound: 1639.8 ± 2.1 m/s

---

conditions: 308.65 K; 101.33 kPa; Liquid; Pulse-echo method

molecule: C[NH2+]CCO.O=C[O-] [2-hydroxy-N-methylethanaminium formate]
scale_unit: m/s
speed of sound: 1794.9
//
molecule: CC(C)C(=O)[O-].C[NH2+]CCO [2-hydroxy-N-methylethanaminium isobutyrate]
scale_unit: m/s
speed of sound: 1581.7
//
molecule: CCCCC(=O)[O-].C[NH2+]CCO [2-hydroxy-N-methylethanaminium pentanoate]
scale_unit: m/s
speed of sound: 1516.1
//
molecule: CCC(=O)[O-].C[NH2+]CCO [2-hydroxy-N-methylethanaminium propionate]
scale_unit: m/s
speed of sound: 1659
//
molecule: CCCC(=O)[O-].C[NH2+]CCO [N-methyl-2-hydroxyethylammonium butanoate]
scale_unit: m/s
speed of sound: 1581.5

---

The reader will find reported mass density values listed item by item below.
conditions: 282.9 K; 101.33 kPa; Liquid; Vibrating tube method
readout_label: mass density (kg/m3)

molecule: CC(C)C(=O)[O-].C[NH2+]CCO [2-hydroxy-N-methylethanaminium isobutyrate]
readout_label: mass density
scale_unit: kg/m3
endpoint_value: 1053.08

molecule: CCC(=O)[O-].C[NH2+]CCO [2-hydroxy-N-methylethanaminium propionate]
readout_label: mass density
scale_unit: kg/m3
endpoint_value: 1081.21

molecule: CC(=O)[O-].C[NH2+]CCO [N-methyl-2-hydroxyethylammonium acetate]
readout_label: mass density
scale_unit: kg/m3
endpoint_value: 1109.98

molecule: C[NH2+]CCO.O=C[O-] [2-hydroxy-N-methylethanaminium formate]
readout_label: mass density
scale_unit: kg/m3
endpoint_value: 1136.77

molecule: CCCCC(=O)[O-].C[NH2+]CCO [2-hydroxy-N-methylethanaminium pentanoate]
readout_label: mass density
scale_unit: kg/m3
endpoint_value: 1026.51

molecule: CCCC(=O)[O-].C[NH2+]CCO [N-methyl-2-hydroxyethylammonium butanoate]
readout_label: mass density
scale_unit: kg/m3
endpoint_value: 1049.52

---

settings: 308.15 K; 101.33 kPa; Liquid
The threshold is 100 mPa·s. Values of viscosity beneath it are tagged satisfied; values meeting or exceeding it are tagged not satisfied.

compound: C[NH2+]CCO.O=C[O-] [2-hydroxy-N-methylethanaminium formate]
classification: satisfied
--
compound: CCCC(=O)[O-].C[NH2+]CCO [N-methyl-2-hydroxyethylammonium butanoate]
classification: not satisfied
--
compound: CCCCC(=O)[O-].C[NH2+]CCO [2-hydroxy-N-methylethanaminium pentanoate]
classification: not satisfied
--
compound: CC(=O)[O-].C[NH2+]CCO [N-methyl-2-hydroxyethylammonium acetate]
classification: satisfied
--
compound: CCC(=O)[O-].C[NH2+]CCO [2-hydroxy-N-methylethanaminium propionate]
classification: not satisfied

Every entry's value here was drawn from the NIST ThermoML archive (doi:10.1021/je900550v).
